The reported measurements were obtained from patent US10988459B2.

- system.tested: human RIP1 kinase domain (2-375) (Homo sapiens (Human), UniProt Q13546)
- Sequence (Q13546 2-375): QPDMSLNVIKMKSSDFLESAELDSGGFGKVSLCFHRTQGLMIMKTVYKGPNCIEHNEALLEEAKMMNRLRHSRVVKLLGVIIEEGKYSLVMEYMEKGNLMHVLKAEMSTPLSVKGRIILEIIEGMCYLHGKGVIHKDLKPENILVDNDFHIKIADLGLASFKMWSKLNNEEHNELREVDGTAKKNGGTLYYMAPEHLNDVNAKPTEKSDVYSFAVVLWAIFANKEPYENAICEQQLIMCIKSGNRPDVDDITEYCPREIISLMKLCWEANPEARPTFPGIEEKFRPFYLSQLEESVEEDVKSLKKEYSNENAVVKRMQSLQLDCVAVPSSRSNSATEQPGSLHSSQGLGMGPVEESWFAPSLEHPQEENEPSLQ
- measurement.description: biochemical
- Assay type: biochemical
- condition.info: tight-binding apparent inhibition constant; human RIP1 kinase domain (2-375) 50 nM, 50 uM ATP, 2 hours; read-out: Ki
pKi: −log10 of the molar value.
Rule: pKi under 7 gives no, otherwise yes.

{"molecule": "CN1C(=O)[C@@H](NC(=O)c2nc3n(n2)CC[C@@H]3c2ccccc2)COc2ccccc21", "system.tested": "human RIP1 kinase domain (2-375) (Homo sapiens (Human), UniProt Q13546)", "label.value": "yes"}
{"molecule": "CN1C(=O)[C@@H](NC(=O)c2ncn(Cc3ccccn3)n2)CCn2nccc21", "system.tested": "human RIP1 kinase domain (2-375) (Homo sapiens (Human), UniProt Q13546)", "label.value": "no"}
{"molecule": "CC[C@H]1C[C@@H](Cn2cnc(C(=O)N[C@H]3CCn4nccc4N(C)C3=O)n2)C1", "system.tested": "human RIP1 kinase domain (2-375) (Homo sapiens (Human), UniProt Q13546)", "label.value": "yes"}

# check: pKi of Cc1ncccc1Cn1cnc(C(=O)N[C@H]2CCn3nc(C4CC4)cc3N(C)C2=O)n1 is greater than or equal to 7
no

# check: pKi of O=C(N[C@H]1CCc2cc(F)cc(F)c2NC1=O)c1ncc2c(n1)C1(CCCC1)OC2 is greater than or equal to 7
yes

# check: pKi of CCC[C@]1(C)OCc2cnc(C(=O)N[C@H]3COc4ccccc4N(C)C3=O)nc21 (mixture of isomers) is greater than or equal to 7
yes

# check: pKi of CN1C(=O)[C@@H](NC(=O)c2nc3n(n2)CCC32CCOC2)COc2ccccc21 (stereo partly shown) is greater than or equal to 7
no

# check: pKi of CN1C(=O)[C@@H](NC(=O)c2nc3n(n2)[C@@H](C2CCOCC2)CCC3)COc2ccccc21 (racemic) is greater than or equal to 7
no

----------
List of log10 of Ki values.
- system.tested: human RIP1 kinase domain (2-375) (Homo sapiens (Human), UniProt Q13546)
- measurement.description: biochemical
- Type: biochemical
- condition.info: tight-binding apparent inhibition constant; human RIP1 kinase domain (2-375) 50 nM, 50 uM ATP, 2 hours; read-out: Ki
Note the log scale: values are log10 of Ki expressed in nM.

Example entries and their recorded answers appear below.
{"compound": "CN1C(=O)[C@@H](NC(=O)c2nc3n(n2)[C@H](C(F)(F)F)CC3)COc2ccccc21 [Example 350]", "log10 of Ki": 1.29}
{"compound": "CN1C(=O)[C@@H](NC(=O)c2nc3n(n2)C(C2CCOC2)CCC3)CCn2nccc21 (some centres unmarked) [Example 390]", "log10 of Ki": 3.48}
{"compound": "Cc1cc2n(n1)CC[C@@H](NC(=O)c1ncc3cnn(-c4ccccn4)c3n1)C(=O)N2C [Example 633]", "log10 of Ki": 3.58}
{"compound": "O=C(N[C@H]1COc2cc(F)cc(F)c2NC1=O)c1ncc2c(n1)C1(CCCC1)OC2 [Example 481]", "log10 of Ki": 0.69}

Attention now shifts to the item below.
Which measured log10 of Ki value corresponds to CN1C(=O)[C@@H](NC(=O)c2nc3n(n2)C(C2CCOCC2)CCC3)COc2ccccc21 (some centres unmarked) [Example 408] ?
2.17

----------
- system.tested: human RIP1 kinase domain (2-375) (Homo sapiens (Human), UniProt Q13546)
- measurement.description: biochemical
- Format: biochemical
- condition.info: human RIP1 kinase domain (2-375), 50 uM ATP, 2 hours incubation, Transcreener ADP assay; read-out: RIP1 Ki
List of pKi values.
By convention, pKi is the negative base-10 log of a molar concentration.

{"compound": "CN1C(=O)C(NC(=O)c2ncn(Cc3ccccc3)n2)CCn2cncc21 (stereo not drawn)", "recorded.value": 7.07}
{"compound": "CN1C(=O)C(NC(=O)c2ncn(Cc3ccccc3)n2)CCn2c1nc1ccccc12 (stereo not drawn)", "recorded.value": 6.90}
{"compound": "CN1C(=O)[C@@H](NC(=O)c2ncc3c(n2)C(C)(C)OC3)COc2ccccc21", "recorded.value": 7.21}
{"compound": "CN1C(=O)C(NC(=O)c2ncn(Cc3ccccc3)n2)CCCn2cncc21 (stereo not drawn)", "recorded.value": 6.91}
{"compound": "CN1C(=O)C(NC(=O)c2ncn(Cc3ccccc3)n2)CCn2nc(C(F)(F)F)cc21 (stereo not drawn)", "recorded.value": 7.11}

Attention now shifts to the item below.
Which measured pKi value corresponds to CN1C(=O)C(NC(=O)c2ncn(Cc3ccccc3)n2)CCn2nc(C3CC3(F)F)cc21 (stereo not drawn) ?
7.13

----------
List of Ki values.
- system.tested: human RIP1 kinase domain (2-375) (Homo sapiens (Human))
- measurement.description: biochemical
- Format: biochemical
- condition.info: Table 5; apparent Ki (Morrison tight-binding fit); 50 nM RIP1 kinase domain, 50 uM ATP, 2 hours incubation; read-out: Ki

{"compound": "CN1C(=O)C(NC(=O)c2ncn(Cc3ccccc3)n2)CCn2nc(-c3ccn(C)n3)cc21 (racemic)", "Ki": "70 nM"}
{"compound": "CN1C(=O)[C@@H](NC(=O)c2ncn(Cc3ccccc3)n2)CCn2nc(CO)cc21 (single isomer, unassigned) [Example 788]", "Ki": "61 nM"}
{"compound": "COCCNCc1cc2n(n1)CCC(NC(=O)c1ncn(Cc3ccccc3)n1)C(=O)N2C (single isomer, unassigned) [Example 784]", "Ki": "225 nM"}
{"compound": "CN1C(=O)[C@@H](NC(=O)c2ncn(Cc3ccccc3F)n2)CCn2nc(CCN3CC(F)C3)cc21", "Ki": "337 nM"}
{"compound": "Cc1cc2n(n1)CC[C@H](NC(=O)c1cc3c(Br)cccc3cn1)C(=O)N2C (racemic)", "Ki": "618 nM"}
{"compound": "CN1C(=O)[C@@H](NC(=O)c2cc3n(n2)CCC[C@H]3c2ccccc2F)COc2ccccc21", "Ki": "9 nM"}
{"compound": "CN1C(=O)[C@@H](NC(=O)c2cc3c(-c4ccccc4)cccc3cn2)CCn2nccc21 (racemic)", "Ki": "24 nM"}
{"compound": "CN1C(=O)[C@@H](NC(=O)c2ncn(Cc3ccccc3)n2)CCn2nc(CN3CCOCC3)cc21 [Example 779]", "Ki": "155 nM"}
{"compound": "COC1CN(Cc2cc3n(n2)CCC(NC(=O)c2ncn(Cc4ccccc4)n2)C(=O)N3C)C1 (single isomer, unassigned)", "Ki": "444 nM"}
{"compound": "CN1C(=O)C(NC(=O)c2ncn(Cc3ccccc3)n2)CCn2nc(Cn3cccn3)cc21 (racemic)", "Ki": "114 nM"}

Given the entry C[C@@]1(C(F)(F)F)OCc2cnc(C(=O)N[C@H]3CCc4cc(F)cc(F)c4NC3=O)nc21 , what Ki was observed with human RIP1 kinase domain (2-375) (Homo sapiens (Human))?
12 nM

Given the entry CN1C(=O)[C@@H](NC(=O)c2ncn(Cc3ccccc3)n2)CCn2nc(CC3CCOCC3)cc21 , what Ki was observed with human RIP1 kinase domain (2-375) (Homo sapiens (Human))?
37 nM

Given the entry CCn1ccc(-c2cc3n(n2)CCC(NC(=O)c2ncn(Cc4ccccc4)n2)C(=O)N3C)n1 (racemic) , what Ki was observed with human RIP1 kinase domain (2-375) (Homo sapiens (Human))?
95 nM

Given the entry CN1C(=O)[C@@H](NC(=O)c2ncn(Cc3ccccc3)n2)CCn2nc(CCN3CC(F)(F)C3)cc21 , what Ki was observed with human RIP1 kinase domain (2-375) (Homo sapiens (Human))?
115 nM

Given the entry CN1C(=O)[C@@H](NC(=O)c2nc3n(n2)[C@@H](c2ccccc2)CCC3)COc2ccccc21 (single isomer, unassigned) [Example 734] , what Ki was observed with human RIP1 kinase domain (2-375) (Homo sapiens (Human))?
149 nM

----------
- system.tested: human RIP1 kinase domain (2-375) (Homo sapiens (Human))
- measurement.description: biochemical
- Format: biochemical
- condition.info: tight-binding apparent inhibition constant; human RIP1 kinase domain (2-375) 50 nM, 50 uM ATP, 2 hours; read-out: Ki
List of Ki values.
Your answer should be a number followed by the unit of measure.

{"compound": "Cc1cc2n(n1)CC[C@H](NC(=O)c1nc3n(n1)CCC31CCOC1)C(=O)N2C (stereo partly shown)", "Ki": "9300 nM"}
{"compound": "CN1C(=O)[C@@H](NC(=O)c2ncn(Cc3ccc(F)cc3F)n2)CCn2nc(C(F)(F)F)cc21", "Ki": "28 nM"}
{"compound": "CN1C(=O)[C@@H](NC(=O)c2ncn(Cc3ccccc3Cl)n2)CCn2nc(C(F)(F)F)cc21", "Ki": "4.8 nM"}
{"compound": "CN1C(=O)[C@@H](NC(=O)c2ncn(Cc3cccc(F)c3)n2)CCn2nc(C3CC3)cc21", "Ki": "14 nM"}

Which measured Ki value corresponds to Cc1cc(F)c2c(c1)OC[C@H](NC(=O)c1nc3n(n1)[C@H](C(C)C)CCC3)C(=O)N2 (single isomer, unassigned) ?
3.46 nM

Which measured Ki value corresponds to Cc1cc2n(n1)CC[C@H](NC(=O)c1ncn(Cc3ccc(Cl)cc3Cl)n1)C(=O)N2C ?
7.8 nM
